This listing pairs compounds with measured Inhibition.
# Tested on: Acinetobacter baumannii
# method: Antibacterial activity against Acinetobacter baumannii ATCC 19606 (CO-ADD:GN_034); MIC in CAMBH media using NBS plates, by Resazurin F(560/590)
# Assay type: functional
# conditions used: Concentration 20 uM, ASSAY_TEST Inhibition of Bacterial Growth, detection method Resazurin, Fluorescence (ex560/em590), MEDIA CAMHB, plate type 384well, CORNING #3640, time 18 hr
Give a bare numeral; the unit % is implied.

c1cc(-n2nnc3cnccc32)ccn1 ... -18.41
CCCSc1ncnc2[nH]ncc12 ... -9.04
Nn1c(Cc2ccccc2)nnc1Cc1ccccc1 ... 16.12
COc1cc2c(cc1OC)C(C1(O)CCCCC1)NCC2 (stereo not given) ... -1.81
CC(C)NC(=O)c1ccc(C(C)C)cc1 ... -9.59

Find the measured Inhibition of `O=C(NC1CCCCC1)c1cc2ccccc2cc1O` and report it. 7.31

Find the measured Inhibition of `O=C(Nc1nnc(C(F)(F)F)s1)c1c(F)cccc1F` and report it. 12.37

Let me know recorded Inhibition for `O=[N+]([O-])/C=C/c1cc2ccccc2[nH]1` , thanks. -9.9

Provide only the value of recorded Inhibition for `O=C(/C=C/c1ccc(Cl)s1)c1ccc(Cl)s1` 5.48

====

Readings of Inhibition for the listed compounds
# System: Acinetobacter baumannii
# method: Antibacterial activity against Acinetobacter baumannii ATCC 19606 (CO-ADD:GN_034); MIC in CAMBH media using NBS plates, by Resazurin F(560/590)
# Type: functional
# conditions used: Concentration 20 uM, ASSAY_TEST Inhibition of Bacterial Growth, detection method Resazurin, Fluorescence (ex560/em590), MEDIA CAMHB, plate type 384well, CORNING #3640, time 18 hr
Give just the numeric value; % need not be written.

O=C1c2ccccc2C(=O)c2c(Nc3ccc(CCO)cc3)ccc(O)c21 ... 1.68
CN(C)S(=O)(=O)N1C(=O)c2ccccc2C1=O ... 12.12
c1ccc(-n2ncc3cccnc32)cc1 ... -2.45

Identify measured Inhibition corresponding to `CC(=O)Nc1cc(NC(C)=O)ncn1` -10.63

Give the measured Inhibition for Cc1cccc(N2CCN(CC(O)COc3ccc(Cl)cc3)CC2)c1 (stereo unspecified) 4.97

Specify reported Inhibition for the compound shown: `CCN(CC)CCN1C(=O)c2cccc3cc(N)cc(c23)C1=O` 7.97

# return recorded Inhibition for entry O=C(/C=C/c1ccccc1)CC(c1ccccc1)N1CCOCC1 (stereo unspecified) 0.36

Answer with the recorded Inhibition for the compound listed here: `CCOC(=O)N1CCc2cc(OC)c(OC)c3c2c1cc1cc(OC)c(OC)cc13` -15.62

State its Inhibition: `COc1cc2c(cc1OC)C(=O)Cc1ccc3c(c1CN(C)CC2)OCO3` 12.34

====

# System: Candida albicans
# conditions used: 20 µM
# Description: Antifungal activity against Candida albicans ATCC 90028 (CO-ADD:FG_001); MIC in YNB media using NBS plates, by OD630
Potency and affinity values are given separately.
Response field label: string, one of true (1) (Inhibition strictly below 4%) or false (0).

Solved cases below.
CC(C)CNC(=O)/C=C\C(=O)O ... true (1)
Cc1ccc(Nc2c(O)ncnc2O)cc1C ... true (1)
Nc1ccc(Oc2ccc(N)c([N+](=O)[O-])c2)cc1[N+](=O)[O-] ... false (0)
CC1CCCC(CC(=O)O)(CC(=O)O)C1 (configuration not stated) ... true (1)
COc1ccc(C(=S)N2CCN(c3ccccc3C)CC2)cc1 ... false (0)

Does this compound meet the criterion Inhibition < 4%? `N#Cc1cnn(-c2cccc(Cl)c2)c1-n1cccc1` false (0)

Does the reported Inhibition of `Clc1nc(NCCc2ccccc2)c2c[nH]nc2n1` stay below 4%? false (0)

====

# Tested on: Acinetobacter baumannii
# method: Antibacterial activity against Acinetobacter baumannii ATCC 19606 (CO-ADD:GN_034); MIC in CAMBH media using NBS plates, by Resazurin F(560/590)
# Type: functional
# conditions used: Concentration 20 uM, ASSAY_TEST Inhibition of Bacterial Growth, detection method Resazurin, Fluorescence (ex560/em590), MEDIA CAMHB, plate type 384well, CORNING #3640, time 18 hr
measured attribute: Inhibition (%)
Lab book: enter the figure in %, no units written.

See these solved cases before continuing.
Oc1ncnc(CN2CCCCC2)c1O ... 1.82
COc1cc(C2NC(=O)C(C#N)=C(Nc3cccc(C)c3)S2)ccc1O (stereo unspecified) ... 5.33
Cc1ccc2c(c1)C(=C(C#N)C#N)CCN2 ... 12.47
O=C(COc1ccc([N+](=O)[O-])cc1Cl)N1CCOCC1 ... 4.52

Item `O=C(Nc1ccc(Cl)c(Cl)c1)c1ccc(Cl)c(Cl)c1` : provide Inhibition 5.32

State, in one line, measured Inhibition of `CCCCOc1ccc(OC(=O)Nc2cc(Cl)ccc2OC)cc1` 6.78

====

# Test system: Candida albicans
# conditions used: 20 µM
Potency and affinity values are given separately.
List of Inhibition values.
Number first, unit second.

Worked set:
OCc1nc2nc(Cl)c(Cl)[nH]c-2n1 ... 1.75%
O=C(c1cccnc1)N1CCN(c2ccccc2Cl)CC1 ... 2.66%
OCc1ncccc1O ... 3.22%
O=C(O)CCc1cccnc1 ... 1.32%
CCN(CC)CCNc1c(C)nc(C#N)c(N)[n+]1[O-] ... 2.9%
Cc1ccc(C)c(N2CCN(c3ccncc3N)CC2)c1 ... 3.75%

Next item in the queue.
Assign Inhibition to the following record: C=CCNC(=O)C1COc2ccccc2O1 (configuration not stated) 1.99%

====

# Inhibition listing for each entry below
# Test system: Escherichia coli
# method: Antibacterial activity against Escherichia coli ATCC 25922 (CO-ADD:GN_001); MIC in CAMBH media using NBS plates, by Resazurin F(560/590)
# Format: functional
# conditions used: Concentration 20 uM, ASSAY_TEST Inhibition of Bacterial Growth, detection method Resazurin, Fluorescence (ex560/em590), MEDIA CAMHB, plate type 384well, CORNING #3640, time 18 hr
Lab book: enter the figure in %, no units written.

NC(=O)SCC(=O)Nc1ccccc1C(=O)O ... -0.39
O=C(Nc1ccc(Oc2ccc(NC(=O)Nc3ccccc3Cl)cc2)cc1)Nc1ccccc1Cl ... 14.43
O=C(Nc1ccc(O)c(C(=O)O)c1)Oc1ccccc1 ... -6.34
OC(c1ccccc1)(c1ccccc1)c1nccn1-c1ccccc1 ... 5
O=S(=O)(O)c1ccc(/N=N/c2ccccc2)cc1 ... 5.47

Give recorded Inhibition. C(COC1CC2CC1C1C2CC2OC21)OC1CC2CC1C1C2CC2OC21 (stereo unspecified) 5.47

====

# System: Staphylococcus aureus
# method: Antibacterial activity against Staphylococcus aureus MRSA ATCC 43300 (CO-ADD:GP_020); MIC in CAMBH media using NBS plates, by Resazurin F(560/590)
# Type: functional
# conditions used: Concentration 20 uM, ASSAY_TEST Inhibition of Bacterial Growth, detection method Resazurin, Fluorescence (ex560/em590), MEDIA CAMHB, plate type 384well, CORNING #3640, time 18 hr
This section presents molecules with their documented Inhibition values.
Number only, in %; omit the unit.

Guide cases for Inhibition, answers given:
CCCn1cnc2c(S)nc(N)nc21 ... 0.53
N#Cc1cnn2ccn(C3OC(CO)C(O)C3O)c12 (stereo not drawn) ... 2.98
Oc1ccc2c(ccc3[nH]cnc32)c1 ... 7.97
CC1=NC2=CC=CC3=NC(C(Cl)(Cl)Cl)=NC(=N1)N23 ... -3.19

Read the entry OC(COc1cccc2ccccc12)CN1CCN(c2ccccc2Cl)CC1 (stereo not drawn) and write its reported Inhibition. -4.97

Consider the molecule `CCOC(=O)c1c(C)oc(C)c(C(=O)OCC)c1=O` and give its recorded Inhibition. 10.05

====

# System: Cryptococcus neoformans
# conditions used: Concentration 20 uM; ASSAY_TEST Inhibition of Fungal Growth; detection method Resazurin; Absorption (OD600-OD570); plate type 384well; NBS; CORNING #3640
# Description: Antifungal activity against Cryptococcus neoformans H99 ATCC 208821 (CO-ADD:FG_002); MIC in YNB media using NBS plates, by Resazurin OD(600-570)
Results with a measured potency or affinity are listed apart.
measured attribute: Inhibition (%)
Record the value in %, omitting the unit from your answer.

Please indicate Inhibition recorded for `COc1c(NC=O)c2c(c([N+](=O)[O-])c1OC)C(=O)OC2` 2.82

Quickly give me recorded Inhibition for `CCOC(=O)C(=O)Cc1nc2ccccc2s1` -6.27

Assign Inhibition to the following record: `COc1ccc(CN2CCOC2=O)cc1OC` -5.16

Give Inhibition for `Oc1ccc(Cc2ccc(Cl)cc2)c(O)c1` -7.42

Look up and report measured Inhibition for this entry: O=C1OC(CN(Cc2ccccc2)Cc2ccccc2)CN1/N=C/c1ccc([N+](=O)[O-])o1 (stereo not given) -4.47

Let me know recorded Inhibition for `O=C1C(Br)=Cc2cccc3cccc1c23` , thanks. 12.78

Determine its reported Inhibition: Cc1ccc(N2CCN(CC(O)COc3cccc(C)c3)CC2)cc1 (stereo not given) -16.06

Fill in Inhibition for record `O=C(Nc1nc2ccccc2s1)Nc1ccc([N+](=O)[O-])cc1Cl` -2.66

Please give measured Inhibition of the following entry: `CCOC(=O)c1nnsc1-c1ccc(-c2snnc2C(=O)OCC)cc1` -3.34

# return recorded Inhibition for entry `Nc1ccc(C(=O)C(=O)c2ccc(N)cc2)cc1` 25.61

Just for reference, ChEMBL document CHEMBL4296182 is where these values come from.
